# target-under-test: T1, neuropilin-1 (NRP1) on HEK293 cells overexpressing NRP1 (UniProt O14786 22-923, limits assumed)
# T1 construct: whole, on cells
# test-method-notes: flow cytometry, HEK293-NRP1 vs HEK293
quantity-measured: 100 nM FACS (MFI Ratio)
// return just the number, without any unit appended

Param item = NRP1-39 (VHH) VHH: EVQLVESGGGLVQPGGSLRLSCAASGRTFSGDVMGWFRQAPGKEREFVAAINYSGRSINYADSVKGRFTISADNSKNTAYLQMNSLKPEDTAVYYCARETLWLKRYWGQGTLVTVSS ; retrieve measured 100 nM FACS (MFI Ratio).
5.6

Thanks! And NRP1-10 (VHH) VHH: EVQLVESGGGLVQPGGSLRLSCAASGFTFSMWPMGWFRQAPGKEREFVARITGGGSTIWSRGDTYYADSVKGRFTISADNSKNTAYLQMNSLKPEDTAVYYCARADYYDSSAFDYWGQGTLVTVSS ?
19.6

Quick one: NRP1-120 (antibody, IgG2, V domains shown) VH: EVQLLESGGGLVQPGGSLRLSCAASGFTFKSYGMHWVRQAPGKGLEWVSEISPSGKKKYYADSVKGRFTISRDNSKNTLYLQMNSLRAEDTAVYYCAAPNDQSAAFDYWGQGTLVTVSS VL: DIQMTQSPSSLSASVGDRVTITCKASDHIGKFLTWYQQKPGKAPKLLIYPKHNRPPGVPSRFSGSGSGTDFTLTISSLQPEDFATYYCQQSYDNPLTFGQGTKVEIK
5.2
